The binders listed here are annotated with their α4β7 cell (Hu) IC50.
Molecular target: α4β7 integrin on human cells (human, UniProt P13612 34-1032; P26010 20-798)
Assay: cell-based or functional assay
Bridge positions count the residues as written; N and C are the ends. Square brackets hold non-standard residues; d marks the D form. Ends that are not written are not given here. Phe(4-tBu) = CC(C)(C)c1ccc(C[C@H](N)C(=O)O)cc1; 1Nal = N[C@@H](Cc1cccc2ccccc12)C(=O)O; NMeR = CN[C@@H](CCCNC(=N)N)C(=O)O; Pen = CC(C)(S)[C@H](N)C(=O)O

Observe how each entry below is paired with its result.
INSERT INTO assay_data (binder, assay_readout, readout_value) VALUES
  ('Ac-[Pen][NMeR]SDTL[Pen][1Nal]E[dK]-NH2 (disulfide 1-7 (inferred); also: homodimer via DIG) [SEQ ID NO 24]', 'α4β7 cell (Hu) IC50', '≤ 10 nM'),
  ('Ac-[Pen][NMeR]SDTL[Pen][Phe(4-tBu)][b‑H‑E][dK] (disulfide 1-7 (inferred); not fully specified (residue 10); also: myristoyl (myristoyl chloride) attached after k) [SEQ ID NO 175]', 'α4β7 cell (Hu) IC50', '> 500 nM');

# ---- query binder ----
Looking for the measured α4β7 cell (Hu) IC50 of [Pen][NMeR]SDTL[Pen][dF]-NH2 (disulfide 1-7 (inferred); not fully specified (N-terminus); printed as DIG-NH2-Pen-(N-Me-R)-S-D-T-L-Pen-f-NH2, disulfide; also: DIG-NH2 at N-terminus, probably DIG-linked dimer) [SEQ ID NO 7] , can you help? > 1000 nM

Origin of the recorded values: patent US20160159862A1
